TARGET_UNDER_TEST: Glutaminase kidney isoform, mitochondrial (Homo sapiens) (UniProt O94925)
Sequence (O94925 whole entry, canonical isoform): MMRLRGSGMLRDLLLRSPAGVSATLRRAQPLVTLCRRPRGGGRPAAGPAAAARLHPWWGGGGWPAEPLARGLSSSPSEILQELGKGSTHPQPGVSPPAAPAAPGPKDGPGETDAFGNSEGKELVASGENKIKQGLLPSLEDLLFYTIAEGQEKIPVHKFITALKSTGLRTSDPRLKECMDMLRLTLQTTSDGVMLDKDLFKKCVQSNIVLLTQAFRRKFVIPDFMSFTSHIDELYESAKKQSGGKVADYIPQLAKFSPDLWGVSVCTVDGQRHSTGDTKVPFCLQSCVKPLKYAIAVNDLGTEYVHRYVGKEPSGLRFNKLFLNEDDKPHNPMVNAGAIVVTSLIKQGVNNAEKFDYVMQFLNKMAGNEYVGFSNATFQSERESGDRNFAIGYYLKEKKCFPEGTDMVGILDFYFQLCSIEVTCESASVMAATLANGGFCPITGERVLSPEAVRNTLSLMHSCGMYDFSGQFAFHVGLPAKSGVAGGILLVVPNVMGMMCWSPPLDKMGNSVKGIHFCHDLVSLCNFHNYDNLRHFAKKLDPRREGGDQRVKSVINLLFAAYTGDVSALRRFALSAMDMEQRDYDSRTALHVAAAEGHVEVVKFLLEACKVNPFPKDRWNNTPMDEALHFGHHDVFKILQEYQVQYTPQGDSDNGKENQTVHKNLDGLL
EXPERIMENT_NOTES: Inhibition of human GLS1 at 10 uM relative to control
inhibition values, listed per item

CC(=O)O[C@H]1C=C([C@H](C)[C@H]2CC(C)=C(C)C(=O)O2)[C@@]2(C)CC[C@H]3[C@@H](C[C@H]4O[C@]45[C@@H](OC(=O)/C=C/C(=O)Nc4nc6ccccc6s4)C=CC(=O)[C@]35C)[C@@]12O | < 50%
COc1ccc(NC(=O)CCCC(=O)O[C@H]2C(Nc3ccc(OC)cc3)CC(=O)[C@]3(C)[C@H]4CC[C@]5(C)C([C@H](C)[C@H]6CC(C)=C(C)C(=O)O6)=C[C@H](OC(C)=O)[C@]5(O)[C@@H]4C[C@H]4O[C@@]423)cc1 (some centres undefined) | < 50%
CC(=O)O[C@H]1C=C([C@H](C)[C@H]2CC(C)=C(C)C(=O)O2)[C@@]2(C)CC[C@H]3[C@@H](C[C@H]4O[C@]45[C@@H](OC(=O)CCC(=O)Nc4nc6ccccc6s4)C=CC(=O)[C@]35C)[C@@]12O | < 50%
CC(=O)O[C@H]1C=C([C@H](C)[C@H]2CC(C)=C(C)C(=O)O2)[C@@]2(C)CC[C@H]3[C@@H](C[C@H]4O[C@]45[C@@H](OC(=O)/C=C/C(=O)Nc4ccc(F)cc4)C=CC(=O)[C@]35C)[C@@]12O | < 50%
COc1ccc(NC(=O)/C=C/C(=O)O[C@H]2C(Nc3ccc(OC)cc3)CC(=O)[C@]3(C)[C@H]4CC[C@]5(C)C([C@H](C)[C@H]6CC(C)=C(C)C(=O)O6)=C[C@H](OC(C)=O)[C@]5(O)[C@@H]4C[C@H]4O[C@@]423)cc1 (some centres undefined) | < 50%

Query :: Endpoint output: inhibition of `CC(=O)O[C@H]1C=C([C@H](C)[C@H]2CC(C)=C(C)C(=O)O2)[C@@]2(C)CC[C@H]3[C@@H](C[C@H]4O[C@]45[C@@H](OC(=O)CCCC(=O)Nc4ccc(N6CCOCC6)c(F)c4)C=CC(=O)[C@]35C)[C@@]12O` . Value?
Result :: 87.2%

Query :: Endpoint output: inhibition of `CC(=O)O[C@H]1C=C([C@H](C)[C@H]2CC(C)=C(C)C(=O)O2)[C@@]2(C)CC[C@H]3[C@@H](C[C@H]4O[C@]45[C@@H](OC(=O)CCCC(=O)Nc4nccs4)C=CC(=O)[C@]35C)[C@@]12O` . Value?
Result :: < 50%

Query :: Endpoint output: inhibition of `CC(=O)O[C@H]1C=C([C@H](C)[C@H]2CC(C)=C(C)C(=O)O2)[C@@]2(C)CC[C@H]3[C@@H](C[C@H]4O[C@]45[C@@H](OC(=O)CCC(=O)Nc4nncs4)C=CC(=O)[C@]35C)[C@@]12O` . Value?
Result :: < 50%

Query :: Endpoint output: inhibition of `CC(=O)O[C@H]1C=C([C@H](C)[C@H]2CC(C)=C(C)C(=O)O2)[C@@]2(C)CC[C@H]3[C@@H](C[C@H]4O[C@]45[C@@H](OC(=O)CCC(=O)Nc4ccc(N6CCOCC6)c(F)c4)C=CC(=O)[C@]35C)[C@@]12O` . Value?
Result :: 53.5%
